# Test system: Staphylococcus aureus FDA 209P
OBSERVATION TYPE: MIC

N=C(N)NCCCC(NC(=O)C(N)CO)C(O)CC(=O)OCC1=C(C(=O)O)N2C(=O)C(NC(=O)CCCC(N)C(=O)O)C2SC1 (stereo not drawn) [TAN-592D] | > 50 µg/mL

Lookup result for N=C(N)NCCCC(NC(=O)C(CO)NC(=O)C(N)CO)C(O)CC(=O)OCC1=C(C(=O)O)N2C(=O)C(NC(=O)CCCC(N)C(=O)O)C2SC1 (stereo not drawn) [TAN-592E] ; measured MIC: > 50 µg/mL

// MIC lookup, compound = NCCCCC(NC(=O)C(CO)NC(=O)C(N)CO)C(O)CC(=O)OCC1=C(C(=O)O)N2C(=O)C(NC=O)(NC(=O)CCCC(N)C(=O)O)C2SC1 (stereo not drawn) [TAN-591B] , result: > 100 µg/mL

====

# EXPERIMENTAL PROTOCOL: Solubility in solvents
# Assay type: physicochemical
# CONDITION DESCRIPTION: water, aqueous acetone, aqueous alcohol; hydrochloride
OBSERVATION TYPE: Solubility

NCCCCC(NC(=O)C(CO)NC(=O)C(N)CO)C(O)CC(=O)OCC1=C(C(=O)O)N2C(=O)C(NC=O)(NC(=O)CCCC(N)C(=O)O)C2SC1 (stereo not drawn) [TAN-591B] | Easily soluble
NCCCCC(NC(=O)C(N)CO)C(O)CC(=O)OCC1=C(C(=O)O)N2C(=O)C(NC=O)(NC(=O)CCCC(N)C(=O)O)C2SC1 (stereo not drawn) [TAN-591A] | Easily soluble
N=C(N)NCCCC(NC(=O)C(N)CO)C(O)CC(=O)OCC1=C(C(=O)O)N2C(=O)C(NC(=O)CCCC(N)C(=O)O)C2SC1 (stereo not drawn) [TAN-592D] | Easily soluble

====

# Tested on: Pseudomonas aeruginosa IFO 3080
# EXPERIMENTAL PROTOCOL: Antimicrobial spectrum, minimal inhibitory concentration (agar dilution)
# Type: cell-based
# CONDITION DESCRIPTION: IFO3080, hydrochloride, inoculum 1 loopful of about 10^6/ml
Known MIC of a selection of compounds

CC(N)C(=O)NC(CO)C(=O)NC(CO)C(=O)NC(CCCNC(=N)N)C(O)CC(=O)OCC1=C(C(=O)O)N2C(=O)C(NC=O)(NC(=O)CCCC(N)C(=O)O)C2SC1 (stereo not drawn) [TAN-592C] | > 50 µg/mL
N=C(N)NCCCC(NC(=O)C(CO)NC(=O)C(N)CO)C(O)CC(=O)OCC1=C(C(=O)O)N2C(=O)C(NC=O)(NC(=O)CCCC(N)C(=O)O)C2SC1 (stereo not drawn) [TAN-592B] | > 50 µg/mL
CC(N)C(=O)NC(CO)C(=O)NC(CO)C(=O)NC(CCCNC(=N)N)C(O)CC(=O)OCC1=C(C(=O)O)N2C(=O)C(NC(=O)CCCC(N)C(=O)O)C2SC1 (stereo not drawn) [TAN-592F] | > 50 µg/mL
CC(N)C(=O)NC(CO)C(=O)NC(CO)C(=O)NC(CCCCN)C(O)CC(=O)OCC1=C(C(=O)O)N2C(=O)C(NC=O)(NC(=O)CCCC(N)C(=O)O)C2SC1 (stereo not drawn) [TAN-591C] | > 100 µg/mL
N=C(N)NCCCC(NC(=O)C(N)CO)C(O)CC(=O)OCC1=C(C(=O)O)N2C(=O)C(NC(=O)CCCC(N)C(=O)O)C2SC1 (stereo not drawn) [TAN-592D] | > 50 µg/mL

# ---- query compound ----
Reading of MIC for N=C(N)NCCCC(NC(=O)C(N)CO)C(O)CC(=O)OCC1=C(C(=O)O)N2C(=O)C(NC=O)(NC(=O)CCCC(N)C(=O)O)C2SC1 (stereo not drawn) [TAN-592A] with Pseudomonas aeruginosa IFO 3080: 50 µg/mL

====

MIC values recorded for Serratia marcescens IFO 12648
Write the answer as a number in µg/mL, unit excluded.

# annotated cases, reported MIC shown
NCCCCC(NC(=O)C(N)CO)C(O)CC(=O)OCC1=C(C(=O)O)N2C(=O)C(NC=O)(NC(=O)CCCC(N)C(=O)O)C2SC1 (stereo not drawn) [TAN-591A] | 25
N=C(N)NCCCC(NC(=O)C(CO)NC(=O)C(N)CO)C(O)CC(=O)OCC1=C(C(=O)O)N2C(=O)C(NC=O)(NC(=O)CCCC(N)C(=O)O)C2SC1 (stereo not drawn) [TAN-592B] | 25
N=C(N)NCCCC(NC(=O)C(N)CO)C(O)CC(=O)OCC1=C(C(=O)O)N2C(=O)C(NC=O)(NC(=O)CCCC(N)C(=O)O)C2SC1 (stereo not drawn) [TAN-592A] | 50

The value of MIC recorded for NCCCCC(NC(=O)C(CO)NC(=O)C(N)CO)C(O)CC(=O)OCC1=C(C(=O)O)N2C(=O)C(NC=O)(NC(=O)CCCC(N)C(=O)O)C2SC1 (stereo not drawn) [TAN-591B] when tested on Serratia marcescens IFO 12648 reads 50

The measured MIC that CC(N)C(=O)NC(CO)C(=O)NC(CO)C(=O)NC(CCCCN)C(O)CC(=O)OCC1=C(C(=O)O)N2C(=O)C(NC=O)(NC(=O)CCCC(N)C(=O)O)C2SC1 (stereo not drawn) [TAN-591C] showed for Serratia marcescens IFO 12648 is 50

// returns MIC for CC(N)C(=O)NC(CO)C(=O)NC(CO)C(=O)NC(CCCNC(=N)N)C(O)CC(=O)OCC1=C(C(=O)O)N2C(=O)C(NC=O)(NC(=O)CCCC(N)C(=O)O)C2SC1 (stereo not drawn) [TAN-592C] with Serratia marcescens IFO 12648; value = 50

====

# EXPERIMENTAL PROTOCOL: Solubility in solvents
# Type: physicochemical
# CONDITION DESCRIPTION: dimethylsulfoxide, methanol, acetone, ethyl acetate; hydrochloride
OBSERVATION TYPE: Solubility

NCCCCC(NC(=O)C(CO)NC(=O)C(N)CO)C(O)CC(=O)OCC1=C(C(=O)O)N2C(=O)C(NC=O)(NC(=O)CCCC(N)C(=O)O)C2SC1 (stereo not drawn) [TAN-591B] | Sparingly soluble
CC(N)C(=O)NC(CO)C(=O)NC(CO)C(=O)NC(CCCNC(=N)N)C(O)CC(=O)OCC1=C(C(=O)O)N2C(=O)C(NC(=O)CCCC(N)C(=O)O)C2SC1 (stereo not drawn) [TAN-592F] | Sparingly soluble
CC(N)C(=O)NC(CO)C(=O)NC(CO)C(=O)NC(CCCNC(=N)N)C(O)CC(=O)OCC1=C(C(=O)O)N2C(=O)C(NC=O)(NC(=O)CCCC(N)C(=O)O)C2SC1 (stereo not drawn) [TAN-592C] | Sparingly soluble

====

Reported diameter of growth inhibition zone by item:
# System: cephalosporinase
# EXPERIMENTAL PROTOCOL: β-lactamase stability test, growth inhibition zone with cephalosporinase
# Format: cell-based
# CONDITION DESCRIPTION: cephalosporinase added; test organism Escherichia coli PG8; drug 100 μg/ml; nutrient agar pH 7.0
Report as a plain number; the unit mm is understood.

The following molecules have reported results that may help.
NCCCCC(NC(=O)C(CO)NC(=O)C(N)CO)C(O)CC(=O)OCC1=C(C(=O)O)N2C(=O)C(NC=O)(NC(=O)CCCC(N)C(=O)O)C2SC1 (stereo not drawn) [TAN-591B] | 23
N=C(N)NCCCC(NC(=O)C(CO)NC(=O)C(N)CO)C(O)CC(=O)OCC1=C(C(=O)O)N2C(=O)C(NC=O)(NC(=O)CCCC(N)C(=O)O)C2SC1 (stereo not drawn) [TAN-592B] | 29
N=C(N)NCCCC(NC(=O)C(N)CO)C(O)CC(=O)OCC1=C(C(=O)O)N2C(=O)C(NC=O)(NC(=O)CCCC(N)C(=O)O)C2SC1 (stereo not drawn) [TAN-592A] | 28
NCCCCC(NC(=O)C(N)CO)C(O)CC(=O)OCC1=C(C(=O)O)N2C(=O)C(NC=O)(NC(=O)CCCC(N)C(=O)O)C2SC1 (stereo not drawn) [TAN-591A] | 22
CC(N)C(=O)NC(CO)C(=O)NC(CO)C(=O)NC(CCCNC(=N)N)C(O)CC(=O)OCC1=C(C(=O)O)N2C(=O)C(NC=O)(NC(=O)CCCC(N)C(=O)O)C2SC1 (stereo not drawn) [TAN-592C] | 29

Let's switch to this molecule now.
The molecule CC(N)C(=O)NC(CO)C(=O)NC(CO)C(=O)NC(CCCCN)C(O)CC(=O)OCC1=C(C(=O)O)N2C(=O)C(NC=O)(NC(=O)CCCC(N)C(=O)O)C2SC1 (stereo not drawn) [TAN-591C] , tested on cephalosporinase, showed diameter of growth inhibition zone of 22

====

# System: Pseudomonas aeruginosa IFO 3080
# EXPERIMENTAL PROTOCOL: Antimicrobial spectrum, minimal inhibitory concentration (agar dilution)
# Type: cell-based
# CONDITION DESCRIPTION: IFO3080, hydrochloride, inoculum 1 loopful of about 10^6/ml
OBSERVATION TYPE: MIC

// solved cases for MIC follow
NCCCCC(NC(=O)C(N)CO)C(O)CC(=O)OCC1=C(C(=O)O)N2C(=O)C(NC=O)(NC(=O)CCCC(N)C(=O)O)C2SC1 (stereo not drawn) [TAN-591A] | 100 µg/mL
N=C(N)NCCCC(NC(=O)C(CO)NC(=O)C(N)CO)C(O)CC(=O)OCC1=C(C(=O)O)N2C(=O)C(NC(=O)CCCC(N)C(=O)O)C2SC1 (stereo not drawn) [TAN-592E] | > 50 µg/mL

# ---- query molecule ----
# value of MIC, Pseudomonas aeruginosa IFO 3080, item NCCCCC(NC(=O)C(CO)NC(=O)C(N)CO)C(O)CC(=O)OCC1=C(C(=O)O)N2C(=O)C(NC=O)(NC(=O)CCCC(N)C(=O)O)C2SC1 (stereo not drawn) [TAN-591B] = > 100 µg/mL
